Where do the numbers come from? From the supplement of paper PMC10567573.

Collected protein stability index values appear next to each entry.
B1: ZNF449 (parent)
chain: FQEYDTDCEVFRQRFRQFQYREAA

# Variants of: B1
# measurement.protocol: protein stability index of a GFP-peptide fusion (GPS, HEK-293T) (PSI 1-6); higher = more stable;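 further: lentivirally expressed fusions sorted by FACS into six bins by GFP to DsRed ratio, PSI derived from sequencing read proportions per bin multiplied by bin number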
# test.parameters: c terminus: a fixed tail appended

Examples with answers:
Q17M = 2.7
E3Q = 2.04
D5V = 1.23
V10L = 2.3
A24I = 2.08
R21A = 2.44
Q17L = 2.75
E9M = 2.65
A23S = 2.11
D7T = 2.08

Please fill in: protein stability index reported for A24C = 2.96

Please fill in: protein stability index reported for Y4S = 2.27

Please fill in: protein stability index reported for E3N = 1.68
